Each recorded value in this set is attributed to patent US20100260765A1.

Molecular target: T1, soluble KDR (VEGF Receptor 2 D1-7, Cat. #676490, Calbiochem) (human, UniProt P35968 20-764)
T1 construct: extracellular domain; Bought reagent; also called soluble human KDR; immobilized soluble KDR
T1 sequence (P35968 20-764): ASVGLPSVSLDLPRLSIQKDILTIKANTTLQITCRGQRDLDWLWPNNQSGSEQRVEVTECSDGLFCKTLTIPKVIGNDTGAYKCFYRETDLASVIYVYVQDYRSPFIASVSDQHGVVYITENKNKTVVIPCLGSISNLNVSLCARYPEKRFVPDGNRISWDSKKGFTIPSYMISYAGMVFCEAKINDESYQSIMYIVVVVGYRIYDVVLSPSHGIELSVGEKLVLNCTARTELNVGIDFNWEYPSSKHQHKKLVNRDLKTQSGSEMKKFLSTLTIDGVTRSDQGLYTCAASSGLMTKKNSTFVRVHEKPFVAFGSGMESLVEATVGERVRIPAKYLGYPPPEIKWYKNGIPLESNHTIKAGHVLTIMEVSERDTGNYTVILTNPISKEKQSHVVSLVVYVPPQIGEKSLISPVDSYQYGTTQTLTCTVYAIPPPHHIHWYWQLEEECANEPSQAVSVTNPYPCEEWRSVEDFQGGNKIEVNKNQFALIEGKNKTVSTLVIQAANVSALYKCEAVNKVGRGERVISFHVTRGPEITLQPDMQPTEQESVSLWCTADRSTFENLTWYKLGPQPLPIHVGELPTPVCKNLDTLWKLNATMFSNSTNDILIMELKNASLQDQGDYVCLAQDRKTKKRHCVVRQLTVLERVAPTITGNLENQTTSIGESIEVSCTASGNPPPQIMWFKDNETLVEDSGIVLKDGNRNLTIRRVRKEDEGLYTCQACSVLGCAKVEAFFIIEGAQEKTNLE
Test: ELISA, plate-coated soluble KDR 250 ng/mL, hybridoma supernatant 1:5
Experimental: To screen by binding to immobilized soluble KDR, plates were coated with KDR (Calbiochem) at 250 ng/mL overnight at 4° C. After blocking and washing the coated plates, the candidate hybridoma supernatants (at 1:5 dilution) were transferred to the plates and incubated for one hour at room temperature. The plates were then washed and incubated with secondary antibody (at 1:4000 dilution) for one hour at room temperature.
measurement.type: KDR OD(450 nm) (OD450)
Answers are plain numbers, in OD450.

>>> meas_value("anti-KDR monoclonal antibody 27A3 (antibody, V domains shown, Fully human mAb from XenoMouse (IgG2 or IgG4 strain); hybridoma supernatant) VH: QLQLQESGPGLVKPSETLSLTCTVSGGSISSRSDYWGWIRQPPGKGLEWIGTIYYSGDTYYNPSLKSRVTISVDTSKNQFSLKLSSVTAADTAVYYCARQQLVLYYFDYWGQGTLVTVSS VL: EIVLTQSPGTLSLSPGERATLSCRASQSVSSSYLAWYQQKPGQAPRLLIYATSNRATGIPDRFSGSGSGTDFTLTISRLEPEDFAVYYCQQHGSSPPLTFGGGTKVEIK")
3.75
>>> meas_value("anti-KDR monoclonal antibody 30D7 (antibody, V domains shown, Fully human mAb from XenoMouse (IgG2 or IgG4 strain); hybridoma supernatant) VH: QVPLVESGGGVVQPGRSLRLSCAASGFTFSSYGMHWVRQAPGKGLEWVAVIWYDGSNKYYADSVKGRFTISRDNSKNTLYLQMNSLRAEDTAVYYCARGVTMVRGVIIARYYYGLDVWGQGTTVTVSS VL: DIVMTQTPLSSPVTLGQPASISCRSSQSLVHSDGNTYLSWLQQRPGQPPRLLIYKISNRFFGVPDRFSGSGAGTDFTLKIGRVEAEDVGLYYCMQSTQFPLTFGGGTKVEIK")
3.45

[Q] What value of KDR OD(450 nm) has been reported for the following binder? anti-KDR monoclonal antibody 21A1 (antibody, V domains shown, Fully human mAb from XenoMouse (IgG2 or IgG4 strain); hybridoma supernatant) VH: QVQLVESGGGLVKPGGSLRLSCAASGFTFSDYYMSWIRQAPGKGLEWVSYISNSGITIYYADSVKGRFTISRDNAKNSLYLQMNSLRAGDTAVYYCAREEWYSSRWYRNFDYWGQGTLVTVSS VL: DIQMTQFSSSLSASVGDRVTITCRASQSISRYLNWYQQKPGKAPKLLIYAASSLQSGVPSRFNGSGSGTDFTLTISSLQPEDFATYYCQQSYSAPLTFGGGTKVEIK
[A] 0.967
